Biological target: T1, FAAP24 HhH domain (UniProt Q9BTP7 139-215)
T1 sequence: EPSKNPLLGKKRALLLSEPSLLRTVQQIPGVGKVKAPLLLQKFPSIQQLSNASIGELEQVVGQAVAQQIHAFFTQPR
Experiment: EMSA; 10 mM NaCl; apparent Kd; EMSA: 10 mM Tris pH 7.0, 10 mM NaCl (high salt: 50 mM NaHPO4, 400 mM NaCl), 5% glycerol, 1 mM DTT, 20 ug/ml BSA, on ice, gel at 4 C; NMR: 50 mM NaHPO4 pH 6.5, 100 mM NaCl, 8% D2O, 298 K
Conditions: protein: recombinant; tags: N-terminal His; label: radiolabeled; blunt
Assay Endpoint: Kd (µM)
Quick note: give the figure in µM, leave out the unit.

Kd reading for ds30 (dsDNA) DNA 1: GGGCGGCGGGTTTTTTTTTTGGCGGGGCGG DNA 2: CCGCCCCGCCAAAAAAAAAACCCGCCGCCC : 9.1

This collection of values is drawn from paper PMC3711432.
